B1: CPXM2 (parent)
chain: EILGCPLPDPNNYYHRRNEMTTTD

- Variants of: B1
- experiment.summary: protein stability index of a GFP-peptide fusion (GPS, HEK-293T) (PSI 1-6); higher = more stable;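 also: lentivirally expressed fusions sorted by FACS into six bins by GFP to DsRed ratio, PSI derived from sequencing read proportions per bin multiplied by bin number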
- recorded.conditions: c terminus: a fixed tail appended
Consider the following variants and their measured protein stability index readings.
Hey, just send me the number, nothing else.

Examples from the recorded data:
mutations | measure.name | recorded.value
D24P | protein stability index | 2.49
N18G | protein stability index | 3.77
R17E | protein stability index | 4.43
P8Q | protein stability index | 3.56
Y14P | protein stability index | 4.41
M20Y | protein stability index | 2.46

Ask: Let me know recorded protein stability index for `P8L` , thanks.
Reply: 2.66

Ask: Let me know recorded protein stability index for `R16V` , thanks.
Reply: 3.19
